Assay: Stability in monkey plasma assessed as parent compound remaining at 25 degreeC measured upto 60 mins by HPLC analysis
Type: ADME, cell-free, Macaca mulatta
Conditions: rhesus monkey, read-out: Stability
Exercise: state measured remaining at 1 h for each of the compounds provided.

O=C1O[C@@H](CO)CN1c1ccc(-c2ccc(/C=N/N3CCCCC3)nc2)c(F)c1    120%
CC(C)N/N=C/c1ccc(-c2ccc(N3C[C@H](CO)OC3=O)cc2F)cn1    108%
O=C1O[C@@H](CO)CN1c1ccc(-c2ccc(/C=N/N3CCOCC3)nc2)c(F)c1    113%

Turning to the following compound.
Recorded remaining at 1 h of CC(=O)NC[C@H]1CN(c2ccc(N3CCOCC3)c(F)c2)C(=O)O1 , please.
99.4%

====

Biological target: Amine oxidase [flavin-containing] B (Homo sapiens)
Sequence (P27338 whole entry): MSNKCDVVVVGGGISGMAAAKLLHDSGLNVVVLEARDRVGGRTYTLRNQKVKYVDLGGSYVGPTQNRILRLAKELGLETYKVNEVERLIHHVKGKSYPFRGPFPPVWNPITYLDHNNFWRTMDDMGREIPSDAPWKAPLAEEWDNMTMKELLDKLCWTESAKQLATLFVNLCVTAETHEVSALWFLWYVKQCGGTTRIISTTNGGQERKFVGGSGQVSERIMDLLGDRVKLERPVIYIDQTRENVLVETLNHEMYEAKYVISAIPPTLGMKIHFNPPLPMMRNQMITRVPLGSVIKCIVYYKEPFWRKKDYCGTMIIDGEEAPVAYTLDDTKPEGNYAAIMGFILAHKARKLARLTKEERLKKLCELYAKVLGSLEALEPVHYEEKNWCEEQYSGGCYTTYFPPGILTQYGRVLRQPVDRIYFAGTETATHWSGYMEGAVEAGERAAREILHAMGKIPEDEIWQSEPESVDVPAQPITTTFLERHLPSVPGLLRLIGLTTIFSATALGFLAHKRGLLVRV
measured.endpoint: pIC50
Numbers only, as −log10 of the molar value.

Recorded pIC50 of O=C1O[C@@H](CO)CN1c1ccc(-c2ccc(/C=N/N3CCOCC3)nc2)c(F)c1 , please.
4.46

====

Experiment: AUC (0 to t) in Sprague-Dawley rat at 1 mg/kg, iv measured upto 24 hrs by LC-MS analysis
Format: ADME, organism-based
Settings: in vivo
measured.endpoint: AUC(0-t) at 24 h (ng·h/mL)
One number for each entry, in ng·h/mL.

O=C1O[C@@H](CO)CN1c1ccc(-c2ccc(/C=N/N3CCS(=O)(=O)CC3)nc2)c(F)c1    1120
O=C1O[C@@H](CO)CN1c1ccc(-c2ccc(/C=N/N3CCOCC3)nc2)c(F)c1    1220

# batch: return AUC(0-t) at 24 h for each of the 4 compounds below
1. O=C1O[C@@H](CO)CN1c1ccc(-c2ccc(/C=N/N3CCCCC3)nc2)c(F)c1
2. CC(=O)NC[C@H]1CN(c2ccc(-c3ccc(/C=N/N4CCS(=O)(=O)CC4)nc3)c(F)c2)C(=O)O1
3. CC(C)N/N=C/c1ccc(-c2ccc(N3C[C@H](CO)OC3=O)cc2F)cn1
4. CC(=O)NC[C@H]1CN(c2ccc(N3CCOCC3)c(F)c2)C(=O)O1

1: 1400; 2: 1290; 3: 1580; 4: 719

====

Tested on: Staphylococcus aureus
Test: Antibacterial activity against methicillin-sensitive Staphylococcus aureus assessed as inhibition of bacterial growth incubated for 16 to 20 hrs by CLSI based broth liquid microdilution method
Format: functional
Conditions: time 16-20 hrs
Exercise: state measured MIC for each of the compounds provided.

NC[C@H]1CN(c2ccc(-c3ccc(/C=N/N4CCCCC4)nc3)c(F)c2)C(=O)O1    8 µg/mL
O=C1O[C@@H](CO)CN1c1ccc(-c2ccc(/C=N/NC3=NCCN3)nc2)c(F)c1    0.25 µg/mL
CN1CCN(/N=C/c2ccc(-c3ccc(N4C[C@H](CO)OC4=O)cc3F)cn2)CC1    0.125 µg/mL
CC(=O)NC[C@H]1CN(c2ccc(-c3ccc(/C=N/N4CCS(=O)(=O)CC4)nc3)c(F)c2)C(=O)O1    0.125 µg/mL
O=C1O[C@@H](CO)CN1c1ccc(-c2ccc(/C=N/Nc3ncccn3)nc2)c(F)c1    0.5 µg/mL

# batch: return MIC for each of the 8 compounds below
1. COC[C@H]1CN(c2ccc(-c3ccc(/C=N/N4CCCCC4)nc3)c(F)c2)C(=O)O1
2. CCS(=O)(=O)NC[C@H]1CN(c2ccc(-c3ccc(/C=N/N4CCCCC4)nc3)c(F)c2)C(=O)O1
3. O=C1O[C@@H](CO)CN1c1ccc(-c2ccc(/C=N/N3CCOCC3)nc2)c(F)c1
4. CC(C)S(=O)(=O)NC[C@H]1CN(c2ccc(-c3ccc(/C=N/N4CCCCC4)nc3)c(F)c2)C(=O)O1
5. CC(C)(C)C(=O)NC[C@H]1CN(c2ccc(-c3ccc(/C=N/N4CCCCC4)nc3)c(F)c2)C(=O)O1
6. CS(=O)(=O)NC[C@H]1CN(c2ccc(-c3ccc(/C=N/N4CCCCC4)nc3)c(F)c2)C(=O)O1
7. O=C1O[C@@H](CNS(=O)(=O)C2CC2)CN1c1ccc(-c2ccc(/C=N/N3CCCCC3)nc2)c(F)c1
8. CS(=O)(=O)N1CCN(/N=C/c2ccc(-c3ccc(N4C[C@H](CO)OC4=O)cc3F)cn2)CC1

1. > 16 µg/mL
2. 1 µg/mL
3. 0.06 µg/mL
4. 2 µg/mL
5. 4 µg/mL
6. 0.125 µg/mL
7. 0.25 µg/mL
8. 0.125 µg/mL

# batch: return MIC for each of the 3 compounds below
1. N=C(N)N/N=C/c1ccc(-c2ccc(N3C[C@H](CO)OC3=O)cc2F)cn1
2. O=C1O[C@@H](CO)CN1c1ccc(-c2ccc(/C=N/N3CCCCC3)nc2)c(F)c1
3. O=C1O[C@@H](CF)CN1c1ccc(-c2ccc(/C=N/N3CCCCC3)nc2)c(F)c1

1. 0.5 µg/mL
2. 0.03 µg/mL
3. 0.25 µg/mL

# batch: return MIC for each of the 2 compounds below
1. NC(=S)N/N=C/c1ccc(-c2ccc(N3C[C@H](CO)OC3=O)cc2F)cn1
2. Cc1cccc(N/N=C/c2ccc(-c3ccc(N4C[C@H](CO)OC4=O)cc3F)cn2)n1

["0.125 µg/mL", "0.25 µg/mL"]

====

Assay: Plasma protein binding in human incubated for 6 hrs by LC-MS/MS analysis
Type: ADME, cell-free
Conditions: read-out: PPB (converted)
measured.endpoint: fraction unbound at 6 h

These solved cases illustrate the format of a correct answer.
O=C1O[C@@H](CO)CN1c1ccc(-c2ccc(/C=N/N3CCCCC3)nc2)c(F)c1    0.013
O=C1O[C@@H](CO)CN1c1ccc(-c2ccc(/C=N/N3CCOCC3)nc2)c(F)c1    0.144
CC(C)N/N=C/c1ccc(-c2ccc(N3C[C@H](CO)OC3=O)cc2F)cn1    0.074
CC(=O)NC[C@H]1CN(c2ccc(N3CCOCC3)c(F)c2)C(=O)O1    0.716

Recorded fraction unbound at 6 h of O=C1O[C@@H](CO)CN1c1ccc(-c2ccc(/C=N/N3CCS(=O)(=O)CC3)nc2)c(F)c1 , please.
0.223

====

Assay: Stability in dog plasma assessed as parent compound remaining at 25 degreeC measured upto 60 mins by HPLC analysis
Format: ADME, cell-free, Canis lupus familiaris
Conditions: read-out: Stability
Exercise: state measured remaining at 1 h for each of the compounds provided.
Numbers only, in %.

These solved cases illustrate the format of a correct answer.
CC(=O)NC[C@H]1CN(c2ccc(N3CCOCC3)c(F)c2)C(=O)O1    99.1
CC(C)N/N=C/c1ccc(-c2ccc(N3C[C@H](CO)OC3=O)cc2F)cn1    112
O=C1O[C@@H](CO)CN1c1ccc(-c2ccc(/C=N/N3CCCCC3)nc2)c(F)c1    97.4

# batch: return remaining at 1 h for each of the 2 compounds below
1. O=C1O[C@@H](CO)CN1c1ccc(-c2ccc(/C=N/N3CCOCC3)nc2)c(F)c1
2. O=C1O[C@@H](CO)CN1c1ccc(-c2ccc(/C=N/N3CCS(=O)(=O)CC3)nc2)c(F)c1

1: 107; 2: 113

====

Assay: Microsomal stability in monkey liver microsomes assessed as elimination half life pretreated with compound upto 60 mins followed by NADPH addition and measured after 60 mins by LC/MS analysis
Type: ADME, Macaca mulatta, Microsome
Conditions: rhesus monkey, time < 120 min, read-out: beta t1/2
measured.endpoint: half-life (h)
Answers are plain numbers, in h.

These solved cases illustrate the format of a correct answer.
CC(C)N/N=C/c1ccc(-c2ccc(N3C[C@H](CO)OC3=O)cc2F)cn1    1.68
O=C1O[C@@H](CO)CN1c1ccc(-c2ccc(/C=N/N3CCCCC3)nc2)c(F)c1    1.34
O=C1O[C@@H](CO)CN1c1ccc(-c2ccc(/C=N/N3CCS(=O)(=O)CC3)nc2)c(F)c1    9.68
O=C1O[C@@H](CO)CN1c1ccc(-c2ccc(/C=N/N3CCOCC3)nc2)c(F)c1    7.78

Turning to the following compound.
Recorded half-life of CC(=O)NC[C@H]1CN(c2ccc(N3CCOCC3)c(F)c2)C(=O)O1 [LINEZOLID] , please.
51.8
